# Test system: PLC-PRF-5 cells
# test method notes: Inhibition of proliferation of PLC-PRF-5 cells (ATPlite)
# Format: cell-based
# cond: Homo sapiens, PLC-PRF-5, PLC-PRF-5 cells; read-out: PLC-PRF-5 cell proliferation IC50
experimental readout: pIC50
One number for each entry, as −log10 of the molar value.

- O=C(Nc1cccc(C(F)(F)F)c1)Nc1ccc(Nc2ccnc(NC(=O)C3CC3)c2)cc1F: 5.73
- COCC(=O)Nc1cc(NC(=O)Nc2ccc(Oc3ccnc(NC(=O)C4CC4)c3)c(F)c2)cc(C(F)(F)F)c1: 6.22
- Cc1cc(NC(=O)Nc2cc(C(F)(F)F)ccc2F)cnc1Oc1ccnc(NC(=O)C2CC2)c1: 6.80
- Cc1ccc(Oc2cc(NC(=O)C3CC3)ncn2)cc1NC(=O)Nc1ccc(Cl)c(C(F)(F)F)c1: 5.06
- Cc1cc(Oc2ccnc(NC(=O)C3CC3)c2)ccc1NC(=O)Nc1ccc(Cl)c(C(C)(F)F)c1: 5.43
- O=C(Nc1ccc(Oc2cc(NC(=O)C3CC3)ncn2)c(F)c1)Nc1ccc(Cl)c(C(F)(F)F)c1: 5.34
- Cc1cc(Oc2cc(NC(=O)C3CC3)ncn2)ccc1NC(=O)Nc1cc(N2CCOCC2)cc(C(F)(F)F)c1: 5.30
- CN(c1ccnc(NC(=O)C2CC2)c1)c1ccc(NC(=O)Nc2cccc(C(F)(F)F)c2)c(F)c1: 6.27
- O=C(Nc1ccc(Oc2ccnc(NC(=O)C3CC3)c2)c(F)c1)Nc1ccc(C(F)(F)F)c(Cl)c1: 5.83
- O=C(Nc1ccc(Oc2ccnc(NC(=O)C3CC3)c2)cc1F)Nc1cc(OC(F)(F)F)ccc1F: 6.74

// each listed compound needs a value for pIC50
1. CC(F)(F)c1ccc(F)c(NC(=O)Nc2ccc(Oc3ccnc(NC(=O)C4CC4)c3)cc2)c1
2. Cc1cc(Oc2cc(NC(=O)C3CC3)ncn2)ccc1NC(=O)Nc1ccc(Cl)c(OC(F)(F)F)c1

1. 6.62
2. 4.65

// each listed compound needs a value for pIC50
1. Cc1ccc(Oc2ccnc(NC(=O)C3CC3)c2)cc1NC(=O)Nc1cc(C(F)(F)F)ccc1F
2. O=C(Nc1ccc(Oc2ccnc(NC(=O)C3CC3)c2)c(F)c1)Nc1cc(C(F)(F)F)ccc1Cl
3. CC(F)(F)c1cncc(NC(=O)Nc2ccc(Oc3ccnc(NC(=O)C4CC4)c3)cc2)c1
4. CC(F)(F)c1cc(NC(=O)Nc2cccc(Oc3cc(NC(=O)C4CC4)ncn3)c2)ccc1Cl

5.24
6.81
6.79
4.66

// each listed compound needs a value for pIC50
1. O=C(Nc1cnc(Oc2ccnc(NC(=O)C3CC3)c2)c(Cl)c1)Nc1ccc(Cl)c(C(F)(F)F)c1
2. O=C(Nc1cccc(OC(F)(F)F)c1)Nc1ccc(Oc2ccnc(NC(=O)C3CC3)c2)cc1F
3. O=C(Nc1ccc(Oc2ccnc(NC(=O)C3CC3)c2)cc1)Nc1cccc(C(F)(F)F)c1
4. CS(=O)(=O)c1cc(NC(=O)Nc2ccc(Oc3ccnc(NC(=O)C4CC4)c3)cc2)cc(C(F)(F)F)c1
5. CC(F)(F)c1cc(NC(=O)Nc2ccc(Oc3cc(NC(=O)C4CC4)ncn3)cc2F)ccc1Cl
6. O=C(Nc1cc(N2CCCC2=O)cc(C(F)(F)F)c1)Nc1ccc(Oc2ccnc(NC(=O)C3CC3)c2)c(F)c1
7. CC(F)(F)c1cc(NC(=O)Nc2ccc(Oc3ccnc(NC(=O)C4CC4)c3)c(F)c2)ccc1Cl

1: 6.08; 2: 6.66; 3: 6.39; 4: 5.78; 5: 5.80; 6: 6.44; 7: 6.12

// each listed compound needs a value for pIC50
1. O=C(Nc1ccc(Oc2ccnc(NC(=O)C3CC3)c2)c(F)c1)Nc1ccc(F)c(OC(F)(F)F)c1
2. Cc1cc(Oc2ccnc(NC(=O)C3CC3)c2)ccc1NC(=O)Nc1ccc(Cl)c(C(F)(F)F)c1
3. Cc1cc(NC(=O)Nc2ccc(Cl)c(C(C)(F)F)c2)ccc1Oc1cc(NC(=O)C2CC2)ncn1

6.16
5.38
5.53
